assay overview: Pharmacokinetics and bioavailability in normal mice
Format: in vivo, mouse
measurement context: female, C57BL/6, iv; mouse plasma; i.v.; 100 mg/kg
Counter-ions that a name gives are not always drawn.
observable: Cmax
Give your result as the value with the unit written after it.

Requested read-out: Cmax. Entry: CC(C)c1ccc2oc3nc(N)c(C(=O)O)cc3c(=O)c2c1 [Amlexanox (salt), sodium salt] 590 µg/mL

###

assay overview: Bioavailability and pharmacokinetics in normal rats
Type: in vivo, rat
measurement context: female, CD, rat, plasma, iv, 200 mg/kg, rat plasma; I.V.
Structures can show the parent of a compound that is named as a salt.
observable: Cmax (µg/mL)
Numeric only. Scale: µg/mL

Cmax lookup needed for CC(C)c1ccc2oc3nc(N)c(C(=O)O)cc3c(=O)c2c1 [Amlexanox (salt), sodium salt] , thanks. 466

###

assay overview: Bioavailability and pharmacokinetics in normal rats
Format: in vivo, rat
measurement context: female, CD, rat, plasma, po, 200 mg/kg, rat plasma, salt solution
Structures can show the parent of a compound that is named as a salt.
observable: half-life (min)
Lab book: enter the figure in min, no units written.

Look at this compound and give its reported half-life. CC(C)c1ccc2oc3nc(N)c(C(=O)O)cc3c(=O)c2c1 [Amlexanox (salt), sodium salt] 73.8

###

assay overview: Bioavailability and pharmacokinetics in normal rats
Format: in vivo, rat
measurement context: female, CD, rat, plasma, po, 25 mg/kg, rat plasma, acid suspended in 1% methyl cellulose
observable: half-life (h)
Report as a plain number; the unit h is understood.

Which value of half-life has been reported for `CC(C)c1ccc2oc3nc(N)c(C(=O)O)cc3c(=O)c2c1` in the records? 7.81

###

assay overview: Bioavailability and pharmacokinetics in normal rats
Assay type: in vivo, rat
measurement context: female, CD, rat, plasma, po, 10 mg/kg, rat plasma, acid suspended in 1% methyl cellulose
observable: MRT (h)
Kindly answer with a numeric value in h, unit omitted.

Returns the measured MRT for the input compound. Input: `CC(C)c1ccc2oc3nc(N)c(C(=O)O)cc3c(=O)c2c1` 6.28

###

assay overview: Bioavailability and pharmacokinetics in normal rats
Assay type: in vivo, rat
measurement context: female, CD, rat, plasma, po, 50 mg/kg, rat plasma, salt solution
Structures can show the parent of a compound that is named as a salt.
observable: half-life (h)
Return type: number; implicit unit h.

Given the compound CC(C)c1ccc2oc3nc(N)c(C(=O)O)cc3c(=O)c2c1 [Amlexanox (salt), sodium salt] , what is its reported half-life? 5.04

###

assay overview: Pharmacokinetics in normal dogs
Type: in vivo, dog (Canis familiaris)
measurement context: male, Beagle, dog, plasma, po, 10 mg/kg
observable: half-life

Any idea what half-life was measured for `CC(C)c1ccc2oc3nc(N)c(C(=O)O)cc3c(=O)c2c1` ? 2.3 h

###

assay overview: Bioavailability and pharmacokinetics in normal rats
Type: in vivo, rat
measurement context: female, CD, rat, plasma, po, 50 mg/kg, rat plasma, acid suspended in 1% methyl cellulose
observable: half-life (min)
Answer format: numeric, min implied, no suffix.

Would you mind telling me what half-life value was observed for `CC(C)c1ccc2oc3nc(N)c(C(=O)O)cc3c(=O)c2c1` ? 350

###

assay overview: Bioavailability and pharmacokinetics in normal rats
Type: in vivo, rat
measurement context: female, CD, rat, plasma, iv, 200 mg/kg, rat plasma; I.V.
Counter-ions that a name gives are not always drawn.
observable: half-life (h)
Use h as the unit, but write only the number.

Returns the measured half-life for the input molecule. Input: CC(C)c1ccc2oc3nc(N)c(C(=O)O)cc3c(=O)c2c1 [Amlexanox (salt), sodium salt] 1.31

###

assay overview: Bioavailability and pharmacokinetics in normal rats
Assay type: in vivo, rat
measurement context: female, CD, rat, plasma, iv, 10 mg/kg, rat plasma; I.V.
Structures can show the parent of a compound that is named as a salt.
observable: AUC (ng·h/mL)
Enter your answer as a number in ng·h/mL; do not include the unit.

Query: AUC; subject: CC(C)c1ccc2oc3nc(N)c(C(=O)O)cc3c(=O)c2c1 [Amlexanox (salt), sodium salt] 3300

###

assay overview: Bioavailability and pharmacokinetics in normal rats
Type: in vivo, rat
measurement context: female, CD, rat, plasma, po, 200 mg/kg, rat plasma, acid suspended in 1% methyl cellulose
observable: half-life (h)
Field format: number, assumed h, no unit text.

Look at this molecule and give its reported half-life. `CC(C)c1ccc2oc3nc(N)c(C(=O)O)cc3c(=O)c2c1` 3.68

###

assay overview: Bioavailability and pharmacokinetics in normal rats
Format: in vivo, rat
measurement context: female, CD, rat, plasma, iv, 25 mg/kg, rat plasma; I.V.
Where a name gives a salt, the structure may show the parent alone.
observable: half-life (h)
The figure you give is taken to be in h; do not add the unit.

Given the compound CC(C)c1ccc2oc3nc(N)c(C(=O)O)cc3c(=O)c2c1 [Amlexanox (salt), sodium salt] , what is its reported half-life? 1.29

###

assay overview: Pharmacokinetics and bioavailability in normal mice
Type: in vivo, mouse
measurement context: female, C57BL/6, iv; mouse plasma; i.v.; 10 mg/kg; read-out: Vss
Counter-ions that a name gives are not always drawn.
observable: Vd (L/kg)
Only the number, expressed in L/kg, is required.

For the molecule shown here, CC(C)c1ccc2oc3nc(N)c(C(=O)O)cc3c(=O)c2c1 [Amlexanox (salt), sodium salt] , give the reported Vd. 0.2

###

assay overview: Bioavailability and pharmacokinetics in normal rats
Assay type: in vivo, rat
measurement context: female, CD, rat, plasma, po, 200 mg/kg, rat plasma, salt solution
Structures can show the parent of a compound that is named as a salt.
observable: AUC (µg·h/mL)
Form entry: value (µg·h/mL) — number only.

What measured AUC goes with CC(C)c1ccc2oc3nc(N)c(C(=O)O)cc3c(=O)c2c1 [Amlexanox (salt), sodium salt] ? 200

###

assay overview: Chemical stability of Amlexanox sodium salt solution (HPLC)
Assay type: physicochemical
measurement context: 20 mg Amlexanox sodium salt in 2 mL Tris buffer pH 7.2; 0.05 molar equivalent of the listed compound; 72 hours, ambient light, access to air; HPLC peak area
Structures can show the parent of a compound that is named as a salt.
The entries below are paired with their reported Retained Amlexnox.
Record the value in %, omitting the unit from your answer.

Cn1c(=O)c2c(ncn2C)n(C)c1=O :: 96.8
CCCOC(=O)c1cc(O)c(O)c(O)c1 [Propyl galate] :: 99.7
CC(C)c1ccc2oc3nc(N)c(C(=O)O)cc3c(=O)c2c1 [Amlexanox (salt), sodium salt] :: 93.8
Cc1occc(=O)c1O :: 99.6
COC(=O)c1ccc(O)cc1 [Methyl 4-hydroxybenzoate] :: 93.1

Query molecule follows.
Please report the recorded Retained Amlexnox for `O=C1O[C@H]([C@@H](O)CO)C(O)=C1O` . 99.5

###

assay overview: Pharmacokinetics and bioavailability in normal mice
Format: in vivo, mouse
measurement context: female, C57BL/6, iv; mouse plasma; i.v.; 10 mg/kg
Where a name gives a salt, the structure may show the parent alone.
observable: AUC (ng·h/mL)
// units = ng·h/mL; emit number, no label

Name the reported AUC value associated with the compound CC(C)c1ccc2oc3nc(N)c(C(=O)O)cc3c(=O)c2c1 [Amlexanox (salt), sodium salt] 31300

###

assay overview: Bioavailability and pharmacokinetics in normal rats
Format: in vivo, rat
measurement context: female, CD, rat, plasma, po, 200 mg/kg, rat plasma, salt solution
Structures can show the parent of a compound that is named as a salt.
observable: Cmax (µg/mL)
// units = µg/mL; emit number, no label

Can you look up the measured Cmax of CC(C)c1ccc2oc3nc(N)c(C(=O)O)cc3c(=O)c2c1 [Amlexanox (salt), sodium salt] for me? 95.2

###

assay overview: Bioavailability and pharmacokinetics in normal rats
Assay type: in vivo, rat
measurement context: female, CD, rat, plasma, po, 100 mg/kg, rat plasma, salt solution
Method: Female CD rats (from 200 to 250 g body weight) were obtained from Charles River Canada Inc. (St. Constant, Quebec, Canada). […] The samples were analysed by HPLC using 250×4.6 mm, Phenomenex C18 Luna, 5 micron column, 1 mL/min flow rate of mobile phase 73% of 25 mM sodium phosphate pH 7.5 and 27% acetonitrile; fluorescent deyection λexcitation=348 nm, λemission=404 nm. […]
Where a name gives a salt, the structure may show the parent alone.
observable: MRT (h)
Numbers only here, please. The scale is h.

Field request: MRT | item: CC(C)c1ccc2oc3nc(N)c(C(=O)O)cc3c(=O)c2c1 [Amlexanox (salt), sodium salt] 2.05

###

assay overview: Pharmacokinetics and bioavailability in normal mice
Assay type: in vivo, mouse
measurement context: female, C57BL/6, iv; mouse plasma; i.v.; 100 mg/kg
Where a name gives a salt, the structure may show the parent alone.
observable: MRT (h)
Express the result in h but write the number alone.

Request the reported MRT associated with CC(C)c1ccc2oc3nc(N)c(C(=O)O)cc3c(=O)c2c1 [Amlexanox (salt), sodium salt] 1.2

###

assay overview: Pharmacokinetics and bioavailability in normal mice
Type: in vivo, mouse
measurement context: female, C57BL/6; mouse plasma; oral; 10 mg/kg
Structures can show the parent of a compound that is named as a salt.
observable: half-life (h)
Supply the numeric figure in h, leaving out any unit text.

Give the measured half-life of CC(C)c1ccc2oc3nc(N)c(C(=O)O)cc3c(=O)c2c1 [Amlexanox (salt), sodium salt] . 1.1
